- Tested Target: 28 common HLA alleles (27 from the reference set plus DPB1*03:01), purified MHC molecules
- Measurement Description: competition assay, inhibition of radiolabeled ligand binding to purified HLA class II; bound = IC50 <1000 nM
Measured No. of HLA-II alleles bound values are reported for all entries that follow.
I'd appreciate it if you included the unit after the number.

>>> recorded_result("QLYSKFLLKAEPLAF [APOB peptide 8 (…)]")
"27 alleles"

Pending binder:
Data request: Given VEFVTNMGIIIPDFA [APOB peptide 4 (…)] , state its recorded No. of HLA-II alleles bound.
Data returned: 18 alleles
